Catalogue of molecules with associated growth inhibition
Test: NCI Yeast Anticancer Drug Screen. Data for the mec2-1 strain (AID 157)
Details: S. cerevisiae mec2-1 strain, at 50.0 µM, hits give high values
About 79,000 compounds went through this panel and 15% of them were active in at least one assay; those are over-represented in the sample as a whole. Active and inactive are the calls of the source. Cut-off read from the data, not from the text of the source: active = growth inhibition above about 70%; inactive = the rest.

INPUT: Tell me the measured growth inhibition of O=C1[C@H]2ON(c3ccccc3)C(c3ccc(Cl)cc3)[C@H]2C(=O)N1c1ccc(Cc2ccc(N3C(=O)[C@@H]4ON(c5ccccc5)C(c5ccc(Cl)cc5)[C@@H]4C3=O)cc2)cc1 (some centres undefined) , please.
OUTPUT: 8.6% (inactive)

---

Experiment: NCI Yeast Anticancer Drug Screen. Data for the mlh1 rad18 strain (AID 175)
Details: S. cerevisiae mlh1 rad18 strain growth inhibition; at 50.0 µM
Compounds without any hit were thinned out: in the full panel of roughly 79,000, 15% have a hit. The source made the active and inactive calls. No stated cut-off is given here; in the data, active means growth inhibition above about 70%; inactive means the rest.
// classify into active, inactive

INPUT: Dear colleague, could you share the recorded outcome for CC(=O)OCC(C)CCC(C)COC(C)=O (centres undefined) when you have a moment?
OUTPUT: inactive

INPUT: Assay outcome for O=S(=O)(O)SCC1=NCCCCN1 : what was it?
OUTPUT: inactive

INPUT: Recorded call for CC1=C(C(=O)CC(=O)Nc2ccc(Cl)c(Cl)c2)Sc2ccccc2N1 ?
OUTPUT: inactive

INPUT: Short answer needed: outcome of this test for Cc1ccc(S(=O)(=O)NNC(=O)c2cc(C(=O)NNS(=O)(=O)c3ccc(C)cc3)c(C)nc2C)cc1 ?
OUTPUT: inactive

INPUT: How was CC1CCC2(CC1)CC(=O)N(N1CCCCC1)C2=O (centres undefined) classified in this test?
OUTPUT: inactive

INPUT: Hello, I am checking results. What call was entered for FC(F)(F)c1nc2ccccc2[nH]1 ?
OUTPUT: inactive

INPUT: Any idea what this test logged for COc1ccc(N)c(OC)c1 ?
OUTPUT: inactive

---

Test: NCI Yeast Anticancer Drug Screen. Data for the sgs1 mgt1 strain (AID 161);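 note: 0% = growth of cultures given vehicle only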
Settings: S. cerevisiae sgs1 mgt1 strain, at 50.0 µM, hits give high values
About 79,000 compounds went through this panel and 15% of them were active in at least one assay; those are over-represented in the sample as a whole. Where a SMILES comes first, the peptide text is derived from it. [ ]: non-standard residue; d: D form. ξ: configuration not given here. ξF = NC(Cc1ccccc1)C(=O)O
test_readout: growth inhibition (%)
Provide only the numeric value, understood in %.

Illustrative cases are given below, each with its answer.
{"columns": ["compound", "growth inhibition (%)"],
 "data": [
  ["CCCCCCCCCCCCC(F)C(=O)OCC1OC(n2cc(C)c(=O)[nH]c2=O)CC1N=[N+]=[N-] (configuration not stated)", 36.4],
  ["O=S(=O)(O)c1ccc(OCCCCCCCCCCOc2ccc(S(=O)(=O)O)cc2)cc1", -9.6],
  ["COc1cc2nncc(SCc3ccc(Cl)cc3)c2cc1OC", -0.55],
  ["CC1(C)OC[C@@H](N)[C@@H](O)CO1", 0.05],
  ["N#Cc1c(N)[nH]c(=S)c(C#N)c1-c1ccccc1", 47.4],
  ["CCCC(C)C(=O)OCCOC (configuration not stated)", -2.95]
]}

INPUT: // lookup growth inhibition for CCN(CC)c1ccc(/C=N\NC(=O)CCCC(=O)N/N=C/c2ccc(N(CC)CC)cc2)cc1
OUTPUT: -22.9

INPUT: Quick one: growth inhibition for CCOC(=O)c1ccc(N=NC2Sc3nc4ccccc4n3C2=O)cc1 (configuration not stated) ?
OUTPUT: -2.65

INPUT: Find the recorded growth inhibition belonging to CCC1CCC(Cc2ccncc2)CC1 (configuration not stated) and report it.
OUTPUT: -11.9

INPUT: What does the record list as growth inhibition for CCCC(O)C(C)(C)[N+](=O)[O-] (configuration not stated) ?
OUTPUT: 12.9

INPUT: Look up growth inhibition for this compound: COc1cc([C@@H]2OC(=O)C3C2C(=O)O[C@H]3c2ccc(O)c(OC)c2)ccc1O (some centres not stated)
OUTPUT: 9.25

INPUT: So what's the measured growth inhibition for this one? COC(=O)c1cc(C(c2cc(C)c(O)c(C(=O)OC)c2)c2cc(C)c(O)c(C(=O)OC)c2)cc(C)c1O
OUTPUT: -4.4

INPUT: Please report the recorded growth inhibition for CN(N=O)C(=O)NC(C=O)C(O)C(O)C(O)CO (configuration not stated) .
OUTPUT: 28.4

INPUT: Requested read-out: growth inhibition. Entry: O=C(Cc1nc2ccccc2o1)C(=O)Nc1ccc(Cl)cc1Cl
OUTPUT: 0.8

INPUT: Field request: growth inhibition | item: NC(Cc1ccccc1)C(=O)NCC(=O)O (configuration not stated) (H-[ξF]-Gly-OH)
OUTPUT: -6.35

INPUT: Entry under review: N=c1c2ccccc2nc2oc3ccc(Cl)cc3n12 . Reported growth inhibition?
OUTPUT: -6.25

INPUT: Value lookup for growth inhibition; key = Cc1cc(Cc2ccc(NC(=O)N3CC3)c(C)c2)ccc1NC(=O)N1CC1
OUTPUT: -6.8

INPUT: If you can, please state the reported growth inhibition value of NC(=O)c1csc(C2O[C@@H](COP(=O)(O)OP(=O)(O)OC[C@H]3OC(n4cnc5c(N)ncnc54)[C@H](O)[C@@H]3O)[C@H](O)[C@@H]2O)n1 (some centres not stated) .
OUTPUT: -0.55

INPUT: Please give the measured growth inhibition for this compound: FC(F)(F)C(F)(F)C(F)(F)c1nc(C(F)(F)C(F)(F)C(F)(F)F)nc(C(F)(F)C(F)(F)C(F)(F)F)n1
OUTPUT: 31.5

INPUT: Returns the measured growth inhibition for the input compound. Input: O=c1cc(S(=O)(=O)Cc2ccccc2)[nH]c(=O)[nH]1
OUTPUT: 0.2

INPUT: Endpoint output: growth inhibition of CCCC1SCC(C)(C)NC1=O (configuration not stated) . Value?
OUTPUT: -1.9

INPUT: Can you share its growth inhibition? I mean this compound: Cc1c(Cl)ccc2c1NC(=O)C2(O)CC(=O)c1ccccc1 (configuration not stated)
OUTPUT: 35.9

---

Assay: NCI Yeast Anticancer Drug Screen. Data for the bub3 strain (AID 167)
Conditions: S. cerevisiae bub3 mutant strain, at 50.0 µM, hits give high values
The panel holds about 79,000 compounds, 15% with a hit somewhere; the sample as a whole holds those more often.
test_readout: growth inhibition (%)
The reply should be a number in %, with the unit left off.

Would you please look over these solved cases?
{"columns": ["compound", "growth inhibition [%]"],
 "data": [
  ["CCOC(=O)C1Cc2c([nH]c(=O)[nH]c2=O)OC1c1ccc(OC)cc1 (stereo unspecified)", 27.1],
  ["Cc1cc(N2CCOCC2)nc2ccc(Cc3ccc4nc(N5CCOCC5)cc(C)c4c3)cc12", -4.65],
  ["COc1cc(C(CC#N)CC#N)cc(OC)c1OC", 8.95],
  ["COC(=O)C(CCc1ccc([N+](=O)[O-])cc1)(CCc1ccc([N+](=O)[O-])cc1)C(=O)OC", 24.2],
  ["OCCc1nccnn1", 4.65]
]}

Attention now shifts to the item below.
INPUT: Param item = CC(C)(C)CNCCCBr ; retrieve measured growth inhibition.
OUTPUT: 30.8

---

Assay: NCI Yeast Anticancer Drug Screen. Data for the cln2 rad14 strain (AID 165);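 note: 0% = growth equal to vehicle treated cultures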
Settings: S. cerevisiae cln2 rad14 strain, at 50.0 µM, hits give high values
Compounds without any hit were thinned out: in the full panel of roughly 79,000, 15% have a hit.
Classify by measured growth inhibition: Criterion met if it is equal to or exceeds -10%, Criterion not met if it is smaller.

{"columns": ["smiles_representation", "label_value"],
 "data": [
  ["O=C(Nc1ccc([N+](=O)[O-])cc1)Oc1c(Cl)cc(Cl)c(Cl)c1[N+](=O)[O-]", "Criterion met"],
  ["Cc1cc(Cl)c(Cl)cc1NC(=O)c1c(Br)c(Br)c(Br)c(Br)c1C(=O)O", "Criterion not met"],
  ["CCCCCCNC1=C(OC)C(=O)C(NCCCCCC)=C(OC)C1=O", "Criterion not met"],
  ["NC(=O)CN(CC(N)=O)C(N)=O", "Criterion met"]
]}

Now consider a different compound.
INPUT: Kindly determine if growth inhibition recorded for [O-]/[N+](=C\c1cccc(O)c1)c1ccccc1 is above or exactly -10%.
OUTPUT: Criterion not met

---

Assay: NCI Yeast Anticancer Drug Screen. Data for the rad50 strain (AID 155);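 note: 0% = growth of vehicle-only cultures of the same strain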
Details: S. cerevisiae rad50 strain growth inhibition; at 50.0 µM; hits give high values
This is part of a sample that, as a whole, favours compounds with a hit. Of some 79,000 tested, about 15% had one in any assay.
test_readout: growth inhibition (%)
Provide only the numeric value, understood in %.

INPUT: # query: growth inhibition of entry Nc1nc2ncn(CC(O)COC(=O)c3ccccc3)c2c(=O)[nH]1 (stereo not drawn)
OUTPUT: 23.8
